# TESTED_SYSTEM: ROR1 (antigen of the KD determination and of the Octet dissociation measurement) (UniProt Q01973 30-403, limits assumed)
# Sequence (Q01973 30-403 limits assumed): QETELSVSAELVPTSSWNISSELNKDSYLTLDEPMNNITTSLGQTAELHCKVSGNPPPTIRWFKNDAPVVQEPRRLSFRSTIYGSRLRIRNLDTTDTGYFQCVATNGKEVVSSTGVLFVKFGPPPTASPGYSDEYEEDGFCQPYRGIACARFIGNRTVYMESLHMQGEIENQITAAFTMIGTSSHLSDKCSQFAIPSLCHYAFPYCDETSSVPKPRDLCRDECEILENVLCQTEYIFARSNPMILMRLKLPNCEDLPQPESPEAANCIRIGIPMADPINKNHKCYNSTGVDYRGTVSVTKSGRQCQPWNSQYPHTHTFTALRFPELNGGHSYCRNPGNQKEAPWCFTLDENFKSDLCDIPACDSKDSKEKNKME
# EXPERIMENT_NOTES: Octet, antigen form not stated

BINDER: PR002580 (antibody, human IgG1, kappa, V domains shown, PR001369 variant: VL N92Q; hIgG1; also called anti-ROR1 1015M3-H10(L: N92Q) hIgG1) VH: QVQLVESGGGVVQPGRSLRLSCAASGFTFSNYGIHWVRQAPGKGLEWVAIMWYDGSNTDYADSVKGRFTISRDTSKNTLFLQMNSLRAEDTAVYYCAREQARSFDLWGRGTLVTVSS VL: DIVMTQSPSTLSASVGDRVTITCRASQTINNWLAWYQQKPGKAPKLLIYKASSLESGVPSRFSGSGSGTEFTLTISSLQPDDFATYYCQQYQSYSPMYTFGQGTKVEIKR
koff [s⁻¹]: 4.75e-05
--
BINDER: PR002569 (antibody, human IgG1, kappa, V domains shown, PR001354 variant: VH G55A, VL S93A; hIgG1; also called anti-ROR1 1015M2-C9(H: G55A; L: S93A) hIgG1) VH: QVQLVQSGGGVVQPGRSLRLSCAASGFTFSSYGMHWVRQAPGKGLEWVAIMWYDASDKDYADSVKGRFTISRDTSKNTLYLQMNSLRAEDTAVYYCAREQARSFDLWGRGTLVTVSS VL: DIVMTQSPSSLSASVGDRVTITCRASQTINNWLAWYQQKPGKAPKLLIYKASSLESGVPSRFSGSGSGTEFTLTISSLQPDDFATYYCQQYNAYSPMYTFGQGTKVEIKR
koff [s⁻¹]: 0.000207
--
BINDER: PR002579 (antibody, human IgG1, kappa, V domains shown, PR001364 variant: VH G55A, VL S93A; hIgG1; also called anti-ROR1 1015M3-D8(H: G55A; L: S93A) hIgG1) VH: EVQLLESGGGVVQPGRSLRLSCAASGFTFSSFGMHWVRQAPGKGLEWVAVIWYDASDKDYADSVKGRFTISRDTSKNTLYLQMNSLRAEDTAVYYCAREQARSFDLWGRGTLVTVSS VL: DIVMTQSPSTLSASVGDRVTITCRASQTINNWLAWYQQKPGKAPKLLIYKASSLESGVPSRFSGSGSGTEFTLTISSLQPDDFATYYCQQYNAYSPMYTFGQGTKVEIKR
koff [s⁻¹]: 0.000199
